assay_overview: IANBD-channel fluorescence artefacts in buffer – biochemical, artefact control for cardiac RTF calcium sensitizer project, confirmation (AID 504382)
condition: IANBD fluorescence interference counterscreen, EC20 Ca2+, at 7.2 µM, hits give high values, scaled: EC20 calcium 0, EC100 calcium 100
Out of some 2,500 compounds screened, about 460 (18%) were called active. These entries were drawn from the full list.
property: fluorescence artifact activation (%)
Numbers only; they are read as %.

Some compounds with recorded fluorescence artifact activation:
GET /values?readout=fluorescence artifact activation&item= "c1ccc(-c2nc(-c3ccco3)n3ccccc23)cc1"
0.05

If you can, please state the reported fluorescence artifact activation value of "Nc1nc(NCc2ccco2)nc(N2CCCCCC2)c1[N+](=O)[O-]" .
1.86

Suppose we examine the compound "NC(=O)c1cc2ccc(O)cc2oc1=NCc1ccccc1" ; what fluorescence artifact activation value has been reported?
0.04

Report fluorescence artifact activation for "COC(=O)C(=N/Nc1ccccc1C(=O)OC)/C(C)=N/O" please.
6.02

So what does the record say about fluorescence artifact activation for O=C(COC(=O)c1cc(-c2cccc3ccccc23)nc2ccccc12)NC1CCS(=O)(=O)C1 (stereo not given) ?
0.37

Need fluorescence artifact activation, item "Fc1ccc(CN2CCCN(C(=S)Nc3ccc(F)cc3)CC2)cc1"
17.4

Quick one: fluorescence artifact activation of O=C1NC2=C(C(=O)CCC2)C(c2ccccc2Cl)N1 (stereo not given) ?
0.2

So what's the measured fluorescence artifact activation for this one? "COc1ccc(C2=NS(=O)(=O)N(C)C(C(=O)NC3CCCC3)=C2)cc1"
-0.02

I have this compound here, CCOC(=O)C1=C(COC(=O)c2ccc3ccccc3c2O)NC(=O)NC1C (stereo not given) , and I need its recorded fluorescence artifact activation.
0.49

We next turn to a different compound, shown below.
Report fluorescence artifact activation for O=C(C1=C(O)C(=O)N(CCN2CCOCC2)C1c1ccc([N+](=O)[O-])cc1)c1cccs1 (stereo not given) please.
10.2

###

assay_overview: IANBD-channel fluorescence artefacts in buffer – biochemical, artefact control for cardiac RTF calcium sensitizer project, confirmation (AID 504382)
condition: IANBD fluorescence interference counterscreen, EC20 Ca2+, at 7.2 µM, hits give high values, scaled: EC20 calcium 0, EC100 calcium 100
The campaign covered roughly 2,500 compounds. About 460 (18%) were called active. A selection follows.
fluorescence artifact activation values by entry
Give just the numeric value; % need not be written.

Solved cases below.
Entry "COC(=O)CCc1c(C)c(C(=O)c2cc(F)c(F)c(F)c2F)c2ccccn12" : reported fluorescence artifact activation = ?
-0.04

Fill in the blank: the reported fluorescence artifact activation of CCCC(CCC(=O)Nc1ccc(S(N)(=O)=O)cc1)C(=O)O (centres undefined) is ____.
0.96

Find the recorded fluorescence artifact activation belonging to Cc1cccc(C)c1OCC(C)N (centres undefined) and report it.
4.83

Here's the next entry for you.
For "O=C1c2c(O)cc(O)cc2O[C@@]12c1c(cc(O)c3c1O[C@H](c1ccc(O)cc1)[C@@H](O)C3)O[C@@H]2c1ccc(O)cc1" , what is its reported fluorescence artifact activation?
0

###

assay_overview: IANBD-channel fluorescence artefacts in buffer – biochemical, artefact control for cardiac RTF calcium sensitizer project, confirmation (AID 504382)
condition: IANBD fluorescence interference counterscreen, EC20 Ca2+, at 7.2 µM, hits give high values, scaled: EC20 calcium 0, EC100 calcium 100
Screen size: about 2,500 compounds; about 460 (18%) were called active. The list is a sample of the results.
Measured fluorescence artifact activation of individual entries
Field format: number, assumed %, no unit text.

Any idea what its fluorescence artifact activation is? The compound is CC1(c2cccc(Br)c2)NC(=O)NC1=O (stereo unspecified)
16.7

// returns reported fluorescence artifact activation for input O=C(NCc1ccco1)C1CC(c2c(Cl)cccc2Cl)=NO1 (stereo unspecified)
-0.09

I am curious: what fluorescence artifact activation value has been reported for Fc1ccc(C2=CC(c3ccco3)n3ncnc3N2)cc1 (stereo unspecified) ?
3.08

Please report the recorded fluorescence artifact activation for CN(C)c1ccc(C2C=C(c3ccc(Cl)cc3OC(F)F)Nc3ncnn32)cc1 (stereo unspecified) .
28.8

More entries:
fluorescence artifact activation for "CCOC(=O)C(CCCCCCC(NC(C)=O)(C(=O)OCC)C(=O)OCC)(NC(C)=O)C(=O)OCC" ?
-0.02

Consider the compound shown here: "CCN1CCc2c(sc(NC(=O)c3ccc(S(=O)(=O)N(C)c4ccccc4)cc3)c2C(=O)NC)C1" What is its recorded fluorescence artifact activation?
0.31

// returns reported fluorescence artifact activation for input "O=C(O)c1cccc2c1-c1c(cccc1[N+](=O)[O-])C2"
706

Suppose we examine the compound "O=C(O)c1cccc([N+](=O)[O-])c1C(=O)Nc1cccc2ccccc12" ; what fluorescence artifact activation value has been reported?
1.51

I'd like to know its fluorescence artifact activation. The compound in question is "COc1cc(OC)c(OC)cc1/C=C/C(=O)c1ccc(NS(=O)(=O)c2ccc(C)cc2)cc1"
0.29

Bench note: what fluorescence artifact activation did "COc1ccc(N/C=C\C(=O)c2ccc(Br)cc2)cc1OC" show?
15.4

Field request: fluorescence artifact activation | item: "O=S(=O)(/C=C/c1ccccc1)N1CCc2ccccc2C1"
0.07

Given "O=C(CSc1ccc(Cl)cc1)Nc1nnc(-c2cccc([N+](=O)[O-])c2)s1" , state its recorded fluorescence artifact activation.
0.01

Quick one: fluorescence artifact activation of "O=[N+]([O-])c1cc(-c2nc(-c3ccncc3)no2)ccc1Cl" ?
-0.06

Value lookup for fluorescence artifact activation; key = "COc1ccc(OC)c(/C=C2/Sc3ccccc3C2=O)c1"
0.05

Given the compound "COc1cccc(N=C2NC(=O)/C(=C/c3cc([N+](=O)[O-])ccc3O)S2)c1" , what is its reported fluorescence artifact activation?
0.01

What value of fluorescence artifact activation has been recorded for this entry: "Cc1c(O)c(=O)c2ccccc2n1C"
2.22

Query (compound): "CCCCn1c(=O)[nH]c2nc3cc(N)ccc3nc2c1=O" ; field requested: fluorescence artifact activation
0.06

Request the reported fluorescence artifact activation associated with "COCCOC(=O)/C(=C/c1ccc(OC(=O)c2ccccc2)cc1)C(C)=O"
4.54

Which fluorescence artifact activation is reported for this compound? CCC1OC23CCCCC2C(C#N)(C(=N)O3)C1(C#N)C#N (stereo unspecified)
0.21

###

assay_overview: IANBD-channel fluorescence artefacts in buffer – biochemical, artefact control for cardiac RTF calcium sensitizer project, confirmation (AID 504382)
condition: IANBD fluorescence interference counterscreen, EC20 Ca2+, at 7.2 µM, hits give high values, scaled: EC20 calcium 0, EC100 calcium 100
The whole screen tested about 2,500 compounds, of which about 460 (18%) were called active. The list is a sample of the results.
# reported fluorescence artifact activation; entries follow
Please give a number only; it is taken to be in %.

Which fluorescence artifact activation value belongs to "O=C(NCc1ccccc1Cl)c1ccc2nc[nH]c2c1" ?
-0.08

Please look at the following molecule next.
What fluorescence artifact activation value was documented for this molecule, "COc1ccc(-c2nnc(SCC(=O)c3ccc[nH]3)n2-c2ccccc2)cc1" ?
0.12

###

Each record here notes measured fluorescence artifact activation.
assay_overview: IANBD-channel fluorescence artefacts in buffer – biochemical, artefact control for cardiac RTF calcium sensitizer project, confirmation (AID 504382)
condition: IANBD fluorescence interference counterscreen, EC20 Ca2+, at 7.2 µM, hits give high values, scaled: EC20 calcium 0, EC100 calcium 100
Among all 2,500 compounds or so, about 460 (18%) were called active. Only a sample is shown.
Hi! Could you send only the number? It should be in %, unit omitted.

Quick one: fluorescence artifact activation for Cc1cc(S(=O)(=O)N2CCCC(C(=O)Nc3ccc(C(=O)O)cc3)C2)ccc1Cl (centres undefined) ?
1.39

***
For the compound shown here, "N#Cc1c(NCCCO)nc(-c2ccccc2)c2c1CCCC2" , give the reported fluorescence artifact activation.
4.04

// returns reported fluorescence artifact activation for input COc1cccc(CC(NC(C)=O)C(=O)NC2CCN(c3nc(C)cc(C)c3C#N)CC2)c1OC (centres undefined)
6.12

Need fluorescence artifact activation, item COc1ccc(NC(=O)C(c2ccc(C)cc2)N(C)C(=O)Cc2cccs2)cc1 (centres undefined)
0.03

###

assay_overview: IANBD-channel fluorescence artefacts in buffer – biochemical, artefact control for cardiac RTF calcium sensitizer project, confirmation (AID 504382)
condition: IANBD fluorescence interference counterscreen, EC20 Ca2+, at 7.2 µM, scaled: EC20 calcium 0, EC100 calcium 100
Among all 2,500 compounds or so, about 460 (18%) were called active.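 The calls were made as follows: active = mean activation above a cutoff of low control average plus 3 SD from the earlier screen (cut at about 12% in these data); inactive = the rest.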 Only a sample is shown.
Lab note: assign the record to one of active, inactive

Some entries whose results are on file:
What classification did "Cc1ccc(OCCCC(=O)NC2CCCCC2)cc1" end up with in this test?
inactive

Call for entry "Cn1cc(/C=C2\SC(=S)N(NC(=O)c3cccc(Cl)c3)C2=O)c2ccccc21" :
active

# fetch the recorded call for CC(=O)N1CCc2c(sc(NC(=O)C3CCCN3S(=O)(=O)c3cccs3)c2C(N)=O)C1 (configuration not stated) here
inactive

Continuing:
What classification did "Cc1nnc(-c2ccccc2)c(=O)n1/N=C/c1c(O)ccc2ccccc12" end up with in this test?
inactive
